ASSAY SYSTEM: CYP 2B6 (Homo sapiens)
Sequence (P20813 whole entry): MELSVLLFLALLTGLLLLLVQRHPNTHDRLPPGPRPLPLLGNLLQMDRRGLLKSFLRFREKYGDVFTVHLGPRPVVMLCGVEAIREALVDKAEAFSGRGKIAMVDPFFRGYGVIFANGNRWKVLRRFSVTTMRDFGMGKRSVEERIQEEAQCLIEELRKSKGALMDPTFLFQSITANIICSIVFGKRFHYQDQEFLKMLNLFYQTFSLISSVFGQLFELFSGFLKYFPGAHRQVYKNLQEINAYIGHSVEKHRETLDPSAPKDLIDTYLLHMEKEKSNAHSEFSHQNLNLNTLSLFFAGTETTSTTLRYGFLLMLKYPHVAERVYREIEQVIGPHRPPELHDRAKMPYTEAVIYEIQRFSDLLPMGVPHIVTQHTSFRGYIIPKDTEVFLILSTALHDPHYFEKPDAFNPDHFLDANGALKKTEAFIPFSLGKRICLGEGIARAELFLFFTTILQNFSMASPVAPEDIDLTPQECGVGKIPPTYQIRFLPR
Values of v (1.25 uM), turnover rate at 1.25 μM strictly less than 0.08 min⁻¹ map to T, and values of at least 0.08 min⁻¹ map to F.

Strictly below 0.08 min⁻¹: is that where v (1.25 uM), turnover rate at 1.25 μM of N#Cc1cc2ccc(OCOCc3ccccc3)cc2oc1=O [BOMCC, 7-Benzyloxymethyloxy-3-cyanocoumarin] sits?
F

hey, is v (1.25 uM), turnover rate at 1.25 μM for N#Cc1cc2ccc(OCc3ccccc3)cc2oc1=O [BCC, 7-Benzyloxy-3-cyanocoumarin, reference compound] lower than 0.08 min⁻¹ or not?
T

Decide: v (1.25 uM), turnover rate at 1.25 μM of COc1ccc2c(C(F)(F)F)cc(=O)oc2c1 [MFC, 7-Methoxy-4-trifluoromethylcoumarin, reference compound] strictly below 0.08 min⁻¹?
F

Below 0.08 min⁻¹ on v (1.25 uM), turnover rate at 1.25 μM? Entry O=c1ccc2nc3ccc(OCOCc4ccccc4)cc3oc-2c1 [BOMR, Benzyloxymethylresorufin]
F
